Target: USP28 (His-tagged USP28-FL-mammalian) (Homo sapiens, UniProt Q96RU2)
Construct: Expression of USP28 (1-1077)-TEV-6*His (pTT5 vector) was carried out in Expi293f cells; made in house; host or cells: Expi293F cells (pTT5 vector)
Sequence (Q96RU2 whole entry): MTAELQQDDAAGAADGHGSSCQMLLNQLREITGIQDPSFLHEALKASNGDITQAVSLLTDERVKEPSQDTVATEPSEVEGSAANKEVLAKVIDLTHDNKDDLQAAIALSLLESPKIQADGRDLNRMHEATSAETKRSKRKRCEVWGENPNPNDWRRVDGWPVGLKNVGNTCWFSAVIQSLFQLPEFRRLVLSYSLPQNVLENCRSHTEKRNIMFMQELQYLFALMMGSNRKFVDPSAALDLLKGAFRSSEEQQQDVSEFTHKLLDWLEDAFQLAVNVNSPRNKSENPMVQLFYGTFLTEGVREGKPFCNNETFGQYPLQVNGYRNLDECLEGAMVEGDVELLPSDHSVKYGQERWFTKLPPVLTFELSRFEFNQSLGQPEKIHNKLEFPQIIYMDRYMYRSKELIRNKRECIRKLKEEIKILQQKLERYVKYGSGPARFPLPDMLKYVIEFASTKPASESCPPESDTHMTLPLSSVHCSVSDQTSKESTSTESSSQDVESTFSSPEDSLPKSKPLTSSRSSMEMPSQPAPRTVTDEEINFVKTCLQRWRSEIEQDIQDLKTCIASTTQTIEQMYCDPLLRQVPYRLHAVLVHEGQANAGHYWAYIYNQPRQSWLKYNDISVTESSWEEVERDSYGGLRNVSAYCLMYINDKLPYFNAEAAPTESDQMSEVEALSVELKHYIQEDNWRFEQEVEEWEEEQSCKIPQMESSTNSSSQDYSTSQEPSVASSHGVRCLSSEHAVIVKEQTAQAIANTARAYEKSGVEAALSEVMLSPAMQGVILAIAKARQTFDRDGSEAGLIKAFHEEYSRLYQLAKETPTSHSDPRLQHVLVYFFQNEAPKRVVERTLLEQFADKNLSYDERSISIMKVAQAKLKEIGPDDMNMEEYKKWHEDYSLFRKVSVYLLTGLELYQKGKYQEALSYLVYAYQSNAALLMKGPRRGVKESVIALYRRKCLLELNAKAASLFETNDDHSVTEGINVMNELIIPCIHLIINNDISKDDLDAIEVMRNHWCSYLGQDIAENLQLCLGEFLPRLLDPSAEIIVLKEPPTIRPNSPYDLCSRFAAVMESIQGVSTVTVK
Assay: Ubiquitin-Rhodamine 110 Assay for USP28 Activity, Example A-1(a)
Assay type: biochemical
Conditions: Ubiquitin-Rhodamine 110 assay, read-out: USP28 A-1(a) IC50 range
Listing: IC50 of selected molecules

Known results for molecules:
molecule | IC50
CN[C@@H]1CCN(c2ccc3c(c2)CC[C@@H](NC(=O)c2sc4nc(C)cnc4c2N)C3)C1 (single isomer, unassigned) [Example 11-28] | 200 to 2000 nM
Cc1nc2sc(C(=O)N[C@H]3CCc4c(C#N)c(N5CCNCC5)cc(F)c4C3)c(N)c2s1 (single isomer, unassigned) [Example 14-14] | 1 to 50 nM
Cc1ccc2c(N)c(C(=O)N[C@@H]3CCc4c(C#N)c(N5CC6CNCC(C5)O6)cc(F)c4C3)sc2n1 (single isomer, unassigned) [Example 14-16] | 50 to 200 nM
Cc1cnc2c(N)c(C(=O)N[C@@H]3CCc4cc(N5CCNCC5)c(F)cc4C3)sc2n1 (single isomer, unassigned) [Example 21-11] | 200 to 2000 nM
CO[C@]1(C)CN(c2ccc3c(c2)OC[C@H](NC(=O)c2sc4nc(C)ccc4c2N)C3)C[C@H]1N [Example 282] | 200 to 2000 nM

What does the record list as IC50 for Cc1cnc2c(N)c(C(=O)N[C@@H]3CCc4c(ccc(N5CCNCC5)c4F)C3)sc2n1 (single isomer, unassigned) [Example 21-9] ?
50 to 200 nM
